Source listed as ChEMBL document CHEMBL1157490.

Target: Integrin alpha-4/beta-1 (Homo sapiens, UniProt P05556+P13612)
Sequence (P05556 whole entry): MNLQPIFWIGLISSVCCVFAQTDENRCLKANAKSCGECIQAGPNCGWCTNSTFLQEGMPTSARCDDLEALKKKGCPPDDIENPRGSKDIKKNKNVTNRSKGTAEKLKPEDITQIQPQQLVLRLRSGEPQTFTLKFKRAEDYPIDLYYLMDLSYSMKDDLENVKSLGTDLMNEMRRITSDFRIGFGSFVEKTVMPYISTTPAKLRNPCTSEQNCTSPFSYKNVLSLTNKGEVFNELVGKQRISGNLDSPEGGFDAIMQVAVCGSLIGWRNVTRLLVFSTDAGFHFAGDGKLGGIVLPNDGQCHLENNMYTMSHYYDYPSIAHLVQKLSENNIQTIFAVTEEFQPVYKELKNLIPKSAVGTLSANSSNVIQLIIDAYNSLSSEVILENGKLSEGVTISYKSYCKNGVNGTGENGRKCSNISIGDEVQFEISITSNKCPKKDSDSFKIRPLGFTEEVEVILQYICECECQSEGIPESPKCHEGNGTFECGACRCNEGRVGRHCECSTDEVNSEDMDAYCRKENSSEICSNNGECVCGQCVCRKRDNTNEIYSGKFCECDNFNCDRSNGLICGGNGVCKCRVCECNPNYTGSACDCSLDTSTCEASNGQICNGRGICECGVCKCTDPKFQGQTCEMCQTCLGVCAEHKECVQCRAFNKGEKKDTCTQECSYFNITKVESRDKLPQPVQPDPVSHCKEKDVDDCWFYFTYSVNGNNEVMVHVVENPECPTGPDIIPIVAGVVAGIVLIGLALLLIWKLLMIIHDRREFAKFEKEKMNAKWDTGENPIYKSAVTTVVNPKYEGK
Sequence (P13612 whole entry): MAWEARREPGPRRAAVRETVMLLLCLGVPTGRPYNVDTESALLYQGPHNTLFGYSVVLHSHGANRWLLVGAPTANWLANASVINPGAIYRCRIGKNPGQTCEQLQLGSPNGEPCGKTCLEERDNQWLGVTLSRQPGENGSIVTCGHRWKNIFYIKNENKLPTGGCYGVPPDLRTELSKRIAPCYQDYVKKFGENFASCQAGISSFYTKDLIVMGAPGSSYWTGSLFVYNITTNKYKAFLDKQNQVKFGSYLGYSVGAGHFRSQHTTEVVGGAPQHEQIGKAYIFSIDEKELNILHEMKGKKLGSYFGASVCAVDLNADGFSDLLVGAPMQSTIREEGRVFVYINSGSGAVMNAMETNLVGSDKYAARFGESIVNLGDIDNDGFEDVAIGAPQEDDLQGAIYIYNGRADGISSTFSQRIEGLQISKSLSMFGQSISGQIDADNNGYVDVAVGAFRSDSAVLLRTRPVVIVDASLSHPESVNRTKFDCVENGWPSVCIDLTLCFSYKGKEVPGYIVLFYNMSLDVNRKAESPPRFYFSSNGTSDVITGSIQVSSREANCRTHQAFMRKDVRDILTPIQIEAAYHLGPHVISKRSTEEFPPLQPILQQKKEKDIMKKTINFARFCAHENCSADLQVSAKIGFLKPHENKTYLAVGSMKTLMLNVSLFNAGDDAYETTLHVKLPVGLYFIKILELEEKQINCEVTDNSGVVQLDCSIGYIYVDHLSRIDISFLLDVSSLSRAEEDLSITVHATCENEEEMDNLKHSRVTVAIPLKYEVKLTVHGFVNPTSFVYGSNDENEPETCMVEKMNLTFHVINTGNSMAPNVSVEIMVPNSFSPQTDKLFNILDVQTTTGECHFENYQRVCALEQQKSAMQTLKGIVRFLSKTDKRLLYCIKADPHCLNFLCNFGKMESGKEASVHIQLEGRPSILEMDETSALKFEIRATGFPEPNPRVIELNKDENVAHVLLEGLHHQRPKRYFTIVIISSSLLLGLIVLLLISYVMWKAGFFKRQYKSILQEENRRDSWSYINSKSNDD
Assay: Inhibition of integrin alpha4beta1 receptor in human whole blood by flow cytometry
MEASUREMENT_NAME: IC50
Value and unit, in that order.

{"SMILES": "O=C(O)[C@H](Cc1ccc(-n2c(CC3CC3)nc3cccnc32)cc1)NC1=C(Br)C(=O)C12CCCCC2", "IC50": "8 nM"}

Consider the compound `O=C(O)[C@H](Cc1ccc(-n2c(-c3cccnc3)nc3cc(F)ccc32)cc1)NC1=C(Br)C(=O)C12CCCCC2` and give its measured IC50.
2680 nM

And the next one, `CC(C)(C)c1nc2cccnc2n1-c1ccc(C[C@H](NC2=C(Br)C(=O)C23CCCCC3)C(=O)O)cc1` ?
3 nM

And the next one, `O=C(O)[C@H](Cc1ccc(-n2c(C3CC3)nc3cccnc32)cc1)NC1=C(Br)C(=O)C12CCCCC2` ?
95 nM
